- assay.details: Inhibition of LPS-induced NF-kappaB (unknown origin) activation transfected in mouse RAW264.7 cells preincubated for 2 hrs followed by LPS challenge measured after 4 hrs by luciferase reporter gene assay
- Format: cell-based
Decide using IC50 alone. Strictly below 70 µM: t. Equal to or above 70 µM: f.

Lab note: IC50 threshold 70 µM. Does this compound come in strictly under it? CC(C)=CCCC(C)(O)[C@@H]1CC[C@@]2(C)OC3=C(C[C@@H]12)C(=O)CC[C@H]3O (some centres not stated) f

Lab note: IC50 threshold 70 µM. Does this compound come in strictly under it? `CC(C)=CCC[C@H](C)[C@@H]1CC[C@](C)(O)[C@]12CC1=C(O2)[C@H](O)CCC1=O` t

Lab note: IC50 threshold 70 µM. Does this compound come in strictly under it? `CO[C@@H]1C[C@H](O)C(O)=C(C/C=C(\C)CC/C=C(\C)CC/C=C(\C)C(=O)O)C1=O` t

Lab note: IC50 threshold 70 µM. Does this compound come in strictly under it? CO[C@@H]1C[C@H](O)C2=C(C[C@H]3[C@H](C(C)(O)CCC=C(C)C)CC[C@@]3(C)O2)C1=O (some centres not stated) f

Lab note: IC50 threshold 70 µM. Does this compound come in strictly under it? C/C(=C\Cc1cc(C(=O)O)cc(O)c1O)CC/C=C(\C)CC[C@@H](O)C(C)(C)O [(+)-MONOCYCLOALTERNARENE B] t

Lab note: IC50 threshold 70 µM. Does this compound come in strictly under it? `C/C(=C\CC[C@]1(C)OC2=C(C[C@@H]1O)C(=O)CC[C@H]2O)CC/C=C(\C)C(=O)O` f

###

- System: HL-60
- assay.details: Cytotoxicity against human HL60 cells
- Assay type: functional, cell-based
metric: IC50 (nM)
Please give a number only; it is taken to be in nM.

Reported IC50, molecule COc1cccc2c1C(=O)c1c(O)c3c(c(O)c1C2=O)C[C@@](O)(C(=O)CO)C[C@@H]3O[C@H]1C[C@H](N)[C@H](O)[C@H](C)O1 [DOXORUBICIN] : ____ 90

###

- assay.details: Inhibition of LPS-induced NF-kappaB (unknown origin) activation transfected in mouse RAW264.7 cells preincubated for 2 hrs followed by LPS challenge measured after 4 hrs by luciferase reporter gene assay
- Assay type: cell-based
metric: IC50 (µM)
Please give a number only; it is taken to be in µM.

Below are worked cases with known answers.
COc1ccc(O)c(C/C=C(\C)CC/C=C(\C)CC[C@@H](O)C(C)(C)O)c1O [(+)-MONOCYCLOALTERNARENE A]	45
S=C(S)N1CCCC1	3
C/C(=C\CC[C@](C)(O)[C@@H]1CC2=C(O1)[C@H](O)CCC2=O)CC/C=C(\C)C(=O)O	67
C/C(C=O)=C\CC[C@@H](C)C1=CC[C@@]2(C)OC3=C(C[C@@H]12)C(=O)[C@H](O)CC3	39
C/C(=C\CC[C@](C)(O)[C@@H]1CC2=C(CC[C@@H](O)C2=O)O1)CC/C=C(\C)C(=O)O	85
CO[C@@H]1C[C@H](O)C(O)=C(C/C=C(\C)CC/C=C(\C)CCCC(C)C(=O)O)C1=O (some centres undefined)	42
C/C(=C\CC[C@@H](C)C1=CC[C@@]2(C)OC3=C(C[C@@H]12)C(=O)[C@H](O)CC3)CO	50

Next item in the queue.
Reported IC50, molecule `CC(C)=CCC[C@](C)(O)[C@H](O)CC[C@](C)(O)[C@@H]1CC2=C(CC[C@@H](O)C2=O)O1` : ____ 62
